Source listed as patent US20190263804A1.

Below are Kd values recorded for PIK3Cγ_h (Homo sapiens).

{"chemical-smiles": "Cc1nc2cnc(N3CCOCC3)cc2n1Cc1cccc2c1CN(C)CC2", "Kd": "> 30.2 µM"}
{"chemical-smiles": "Cc1c(Cl)cccc1Cn1c(C)nc2cnc(N3CCOCC3)cc21", "Kd": "9.5 µM"}
{"chemical-smiles": "Cc1c(Cn2c(C)nc3cnc(C4=CCOCC4)cc32)cccc1C(F)(F)F", "Kd": "17 µM"}
{"chemical-smiles": "Cc1c(Cn2c(CN3CC4(CC(O)C4)C3)nc3cnc(N4CCOCC4)cc32)cccc1C(F)(F)F", "Kd": "> 30.2 µM"}
{"chemical-smiles": "Cc1c(Cn2c(C)nc3c(N)nc(C4=CCOCC4)cc32)cccc1C(F)(F)F", "Kd": "> 30.2 µM"}
{"chemical-smiles": "Cc1c(Cl)cccc1Cn1c(CN2CCS(=O)(=O)CC2)nc2cnc(N3CCOCC3)cc21", "Kd": "> 30.2 µM"}
{"chemical-smiles": "Cc1c(F)cccc1Cn1c(C)nc2c(N)nc(C3=CCOCC3)cc21", "Kd": "21.9 µM"}
{"chemical-smiles": "Cc1c(F)cccc1Cn1c(C)nc2c(N)nc(N3CCOCC3)cc21", "Kd": "> 30.2 µM"}
